The values you see were collected from the supplement of paper PMC10981050.

Overview of reported cell viability across a group of compounds:
# Tested on: OCI-AML2;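 note: after 48 h exposure read by CellTiter-Glo luminescence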
# test description: cell viability relative to vehicle control; higher = less cytotoxic
# condition parameters: 10 µM; SRSF2 genotype: wt/wt
Give your result in % as a bare value.

Known results for compounds:
COc1ccc2[nH]c([S@@+]([O-])Cc3ncc(C)c(OC)c3C)nc2c1 [Esomeprazole sodium]; 91.8
OC[C@H]1O[C@H](OC[C@H]2O[C@H](O[C@]3(CO)O[C@H](CO)[C@@H](O)[C@@H]3O)[C@H](O)[C@@H](O)[C@@H]2O)[C@H](O)[C@@H](O)[C@H]1O [Raffinose]; 98.6

Exercise: # input compound: `N[C@@H](CSC(c1ccccc1)(c1ccccc1)c1ccccc1)C(=O)O` ; wanted: its cell viability
Key: 11.8

Exercise: // returns reported cell viability for input NCCOCCOCCNC(=O)Cc1ccc(Nc2nc(NCc3ccc(F)cc3)nc(NCC3CCCCC3)n2)cc1 [AP-III-a4 (ENOblock)]
Key: 79.6
